Each entry below carries its reported pKd.
Molecular target: T1, human IL-11 (AAH12506.1, Pro22-Leu199) (human, UniProt P20809 22-199)
T1 construct: The range Pro22-Leu199 counts on AAH12506.1; The Octet runs say only 'human IL-11'; also called hIL-11
T1 chain: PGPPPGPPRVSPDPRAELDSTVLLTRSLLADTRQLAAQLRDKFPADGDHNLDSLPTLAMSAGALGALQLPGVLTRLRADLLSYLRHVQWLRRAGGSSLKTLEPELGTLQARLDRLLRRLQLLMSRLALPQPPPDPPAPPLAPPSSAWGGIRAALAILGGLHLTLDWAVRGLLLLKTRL
Experiment: BLI (Octet), antibody captured, human IL-11 in solution
# log scale: pKd equals minus log10 of the concentration in mol/L

Name the reported pKd value associated with the binder hz8C8-VHm1 + hz8C8-VLm9 (antibody, human IgG1, kappa, V domains shown, human IgG1 constant regions) VH: EVQLVESGGGLVQPGGSLRLSCAASGFTFSSFGMHWVRQAPGKGLEWVAYITPGSNTIYYADTVKGRFTISRDNAKNSLYLQMNSLRAEDTAVYYCAREYYSYDEGFAYWGQGTLVTVSS VL: EIVLTQSPATLSLSPGERATLSCSVSDLIPSQYLAWYQQKPGQAPRLLIYRTSNLASGIPARFSGSGSGTDFTLTISSLEPEDFAVYYCQQGVDVPFTFGQGTKLEIKR
10.45
